Tested on: TK-10 renal
measurement.notes: NCI-60 one-dose screen, 48 h (100 = growth as untreated, 0 = no growth, -100 = all killed)
condition.notes: 10 µM unless noted
Description: Growth inhibition of the TK-10 human tumor cell line is measured as a screen for anti-cancer activity. Cells are grown in 96 well plates and exposed to the test compound for 48 hours. Compounds are tested at a single concentration, which is 10^-5 M for most compounds. The reported endpoint is percent growth (GI% or GIPRCNT), where numbers from 0 - 100% represent growth inhibition, and numbers from -100% - 0 represent cell death. For example, a value of 40 represents 60% growth inhibition. […]
About 83,000 compounds went through this panel and 20% of them were active in at least one assay; those are over-represented in the sample as a whole.

{"compound": "COC1CC2CCC(C)C(O)(O2)C(=O)C(=O)N2CCCCC2C(=O)OC(C(C)CC2CCC(O)C(OC)C2)CC(=O)C(C)C=C(C)C(O)C(OC)C(=O)C(C)CC(C)/C=C/C=C/C=C1C (centres undefined)", "growth [%]": 49.7}
{"compound": "c1cncc(CNc2ccccc2-c2nnc(Nc3ccc4c(c3)OCO4)o2)c1", "growth [%]": 50}
{"compound": "CCC(C)CC(C)C(=O)c1c(O)ccn(O)c1=O (centres undefined)", "growth [%]": 83.7}
{"compound": "COc1ccc(OC)c(NC(=O)c2cc3oc4ccccc4c3cc2O)c1", "growth [%]": 135}
{"compound": "CCOC(=O)C(C(C)=O)c1nc2sc3cc(Cl)ccc3n2c(=N)c1C#N (centres undefined)", "growth [%]": 157}
{"compound": "COc1ccc(-c2csc(NC(=O)c3cc(OC)c(OC)c(OC)c3)n2)cc1", "growth [%]": 117}
{"compound": "COc1cc(C2NC(c3ccc(Cl)cc3)C(C)C(=NC(=O)c3cnccn3)C2C)cc(OC)c1OC (centres undefined)", "growth [%]": 103}
{"compound": "O=C(COC(=O)[C@H](C[Se][Se]C[C@H](NC(=O)c1ccc(Br)cc1F)C(=O)OCC(=O)c1ccc(F)cc1)NC(=O)c1ccc(Br)cc1F)c1ccc(F)cc1", "growth [%]": -97.6}
{"compound": "Cc1ccc([N+](=O)[O-])cc1NC(=O)Nc1cccc(F)c1", "growth [%]": 69.1}
{"compound": "Cc1cc(C)c(OC(=O)CSc2nc3ccccc3c(=O)n2CCc2ccccc2)cc1C", "growth [%]": 124}
{"compound": "Cc1cc(C(C)(C)C)cc(C)c1CC1=NCCN1", "growth [%]": 113}
{"compound": "COc1ccc(C(=O)/C=C/c2c(Cl)nc3c(c(C)nn3-c3ccccc3)c2-c2ccc(Br)cc2)cc1", "growth [%]": 106}
{"compound": "CCCC[N+](CCCC)=c1ccc2nc3c(C)cc(N(CC)CC)cc3sc-2c1", "growth [%]": 3.75}
{"compound": "O=Cc1c[nH]c2ccc(NC(=O)OCc3ccccc3)cc12", "growth [%]": 88.1}
{"compound": "COc1ccc2c3c(c(OCCCN(C)C)nc2c1)-c1ccc(Cl)cc1C3=O", "growth [%]": 11.2}
{"compound": "CCC1=C(c2ccc(OC)cc2)C(C)Oc2cc(OC(C)=O)ccc21 (centres undefined)", "growth [%]": 98.6}
{"compound": "O=c1cc(-c2cccnc2)oc2c1ccc1ccccc12", "growth [%]": 114}
{"compound": "CC(=O)c1cc(C(=O)c2ccc3c(c2)Sc2ccccc2N3)c2c(C)cc(C)cn12", "growth [%]": 34.6}
{"compound": "Cc1cc(O)c2c(c1)C[C@H]1[C@@H]3CC[C@H]4CC(=O)CC[C@]4(C)[C@H]3CC(=O)[C@]21C", "growth [%]": 92.5}
